Target sequence: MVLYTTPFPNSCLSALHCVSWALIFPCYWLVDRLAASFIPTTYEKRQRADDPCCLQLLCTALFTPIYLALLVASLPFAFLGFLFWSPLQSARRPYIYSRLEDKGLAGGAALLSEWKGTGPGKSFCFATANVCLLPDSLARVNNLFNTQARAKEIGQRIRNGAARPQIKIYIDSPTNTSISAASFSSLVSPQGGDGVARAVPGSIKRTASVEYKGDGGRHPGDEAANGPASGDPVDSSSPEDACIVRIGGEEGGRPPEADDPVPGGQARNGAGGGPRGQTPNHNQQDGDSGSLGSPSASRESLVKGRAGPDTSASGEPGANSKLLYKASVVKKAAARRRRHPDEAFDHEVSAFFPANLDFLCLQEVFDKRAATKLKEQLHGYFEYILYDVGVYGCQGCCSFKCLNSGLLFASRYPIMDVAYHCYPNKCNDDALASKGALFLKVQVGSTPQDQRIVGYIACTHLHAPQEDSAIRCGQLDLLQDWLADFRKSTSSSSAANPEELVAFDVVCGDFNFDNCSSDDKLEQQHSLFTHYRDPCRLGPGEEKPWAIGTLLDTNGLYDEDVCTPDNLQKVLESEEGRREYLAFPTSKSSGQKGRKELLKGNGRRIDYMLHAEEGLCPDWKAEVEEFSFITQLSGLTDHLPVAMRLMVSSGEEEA
pIC50: −log10 of the molar value.

{"columns": ["Compound", "pIC50"],
 "data": [
  ["COc1ccc(NC2CCCN(C(=O)CCc3ccccc3F)C2)cc1 (stereo not shown)", 5.00]
]}

Where these numbers come from: paper PMC6286365
